Could you please report measured cytotoxicity at 70.5 h for the items listed next?
# Test method notes: Human HepG2 cell viability assay in 384 well format
# Format: toxicity, cell-based
# Parameters: dose 125 nL, time 70.5 hour; concentration not given beside the values
# Condition set: HepG2 cells, read-out: Inhibition
Remember to quote the unit after the number.

[Q] Fill blank: measured cytotoxicity at 70.5 h of the compound COc1cccc(CN(C)C(=O)CSc2ccc3c(c2)OCCO3)c1 is ____.
[A] -4.28%

[Q] Fill blank: measured cytotoxicity at 70.5 h of the compound CC1(C(=O)N2CCOCC2)CN(Cc2cccnc2)CCO1 (stereo not given) is ____.
[A] -8.77%

[Q] Fill blank: measured cytotoxicity at 70.5 h of the compound NC(=O)c1cc(C2CCCN(C(=O)CCc3ccncc3)C2)n[nH]1 (stereo not given) is ____.
[A] -4.91%

[Q] Fill blank: measured cytotoxicity at 70.5 h of the compound CC(C)[C@@H]1CN(C(=O)C2(c3ccccc3)CCN(C)CC2)C[C@H]1C(=O)O is ____.
[A] -5.2%

[Q] Fill blank: measured cytotoxicity at 70.5 h of the compound Cc1cc(N2CCOCC2)ccc1NC(C)c1nc(C(C)C)no1 (stereo not given) is ____.
[A] -0.714%

###

# Test method notes: Human HepG2 cell viability assay in 384 well format
# Format: toxicity, cell-based
# Design: dose 125 nL, time 70.5 hour; concentration not given beside the values
# Condition set: HepG2 cells, read-out: Inhibition
Could you please report measured cytotoxicity at 70.5 h for the items listed next?
Express the result in % but write the number alone.

[Q] Fill blank: measured cytotoxicity at 70.5 h of the compound CCSc1ccc(C(=O)N2CCC3(CC2)[C@H](O)C[C@@H]3O)s1 is ____.
[A] -12.1

[Q] Fill blank: measured cytotoxicity at 70.5 h of the compound CCOc1ccc(-c2nc(CN(C)Cc3c(C)noc3C)cs2)cc1 is ____.
[A] 11.3

[Q] Fill blank: measured cytotoxicity at 70.5 h of the compound Cn1ccnc1Sc1ncc(C(=O)N2CCCCC2)cc1Cl is ____.
[A] -4.57

[Q] Fill blank: measured cytotoxicity at 70.5 h of the compound CC(C)Nc1nc(O)cc(C(C)n2ncc3ccccc3c2=O)n1 (stereo not given) is ____.
[A] -5.33

[Q] Fill blank: measured cytotoxicity at 70.5 h of the compound CCn1c(C2CCN(C(=O)c3cc(Cl)no3)CC2)nn(C)c1=O is ____.
[A] 39

[Q] Fill blank: measured cytotoxicity at 70.5 h of the compound Cn1nccc1C(=O)N1CCOC(Cc2cccc(C(F)(F)F)c2)C1 (stereo not given) is ____.
[A] 4.43

[Q] Fill blank: measured cytotoxicity at 70.5 h of the compound CN1C(=O)CCc2cc(NC(=O)C3CCCC3)ccc21 is ____.
[A] 26.5

[Q] Fill blank: measured cytotoxicity at 70.5 h of the compound COc1ccccc1N1CCC(CNC(=O)CN2CSCC2=O)C1 (stereo not given) is ____.
[A] -7.92

[Q] Fill blank: measured cytotoxicity at 70.5 h of the compound CC(=O)N1CCC(NC(=O)c2ccccc2-n2cnnn2)CC1 is ____.
[A] -3.54

[Q] Fill blank: measured cytotoxicity at 70.5 h of the compound CC(NC(=O)c1ccc(=O)n(C)c1)c1ccccc1-n1cccn1 (stereo not given) is ____.
[A] -19.9

[Q] Fill blank: measured cytotoxicity at 70.5 h of the compound CCOCCCn1c(NC(=O)c2cnc(C)s2)nc2ccccc21 is ____.
[A] 4.48

[Q] Fill blank: measured cytotoxicity at 70.5 h of the compound Cc1cc(C)cc(C(C(=O)O)N(C)CCCN2CCOCC2)c1 (stereo not given) is ____.
[A] 8.9

[Q] Fill blank: measured cytotoxicity at 70.5 h of the compound CC(C)c1nc2n(n1)CC(NCc1ccncc1)CC2 (stereo not given) is ____.
[A] -16.7

[Q] Fill blank: measured cytotoxicity at 70.5 h of the compound COc1ccc(C2CCCN2c2cnc3ccccc3n2)c(OC)c1 (stereo not given) is ____.
[A] -4.21

[Q] Fill blank: measured cytotoxicity at 70.5 h of the compound CC(C)CC(=O)N1CC(=O)c2sc(Nc3ccc(F)cc3)nc2C1 is ____.
[A] 1.95

[Q] Fill blank: measured cytotoxicity at 70.5 h of the compound c1cnnc(N2CCCC2CNc2ncnc3ccsc23)c1 (stereo not given) is ____.
[A] -1.29

[Q] Fill blank: measured cytotoxicity at 70.5 h of the compound Cc1cccc(N(CCC(N)=O)C(=O)c2cnccn2)c1 is ____.
[A] -12.9

[Q] Fill blank: measured cytotoxicity at 70.5 h of the compound CC(C)c1nc2n(n1)CC(NCc1nc(-c3ccccn3)no1)CC2 (stereo not given) is ____.
[A] -7.49

[Q] Fill blank: measured cytotoxicity at 70.5 h of the compound O=C(NCC1CCCO1)c1nc2c(s1)CCCN2c1ncccn1 (stereo not given) is ____.
[A] 24.3

[Q] Fill blank: measured cytotoxicity at 70.5 h of the compound CCc1cc(C(=O)N2CC[C@@H](c3ccc4c(c3)OCO4)[C@H](O)C2)ccn1 is ____.
[A] 16.7

[Q] Fill blank: measured cytotoxicity at 70.5 h of the compound CCN(Cc1ccc2c(c1)OCO2)C(=O)c1cccnc1O is ____.
[A] -5.82

[Q] Fill blank: measured cytotoxicity at 70.5 h of the compound CCC1(CC)CC(=O)N(CC(O)c2ccc(Cl)cc2)C1=O (stereo not given) is ____.
[A] -4.91

[Q] Fill blank: measured cytotoxicity at 70.5 h of the compound CCN(CC)CC(=O)Nc1ccc(-n2ccc(C(N)=O)n2)cc1 is ____.
[A] 25.3

[Q] Fill blank: measured cytotoxicity at 70.5 h of the compound c1cc(-c2nnn3c2COC(CNCC2CCOCC2)C3)ccn1 (stereo not given) is ____.
[A] 32.3

[Q] Fill blank: measured cytotoxicity at 70.5 h of the compound O=C(NCc1ccccc1CN1CCCC1=O)Nc1nncs1 is ____.
[A] -7.24

###

# Test method notes: Human HepG2 cell viability assay in 384 well format
# Type: toxicity, cell-based
# Set-up: dose 125 nL, time 70.5 hour; concentration not given beside the values
# Condition set: HepG2 cells, read-out: Inhibition
Could you please report measured cytotoxicity at 70.5 h for the items listed next?
Express the result in % but write the number alone.

[Q] Fill blank: measured cytotoxicity at 70.5 h of the molecule Cn1ccnc1CNC1CCCN(Cc2noc(C3CC3)n2)C1 (stereo not drawn) is ____.
[A] -3.59

[Q] Fill blank: measured cytotoxicity at 70.5 h of the molecule C[S+]([O-])CCCNCc1cc(F)ccc1Br (stereo not drawn) is ____.
[A] 0.821

[Q] Fill blank: measured cytotoxicity at 70.5 h of the molecule Cc1ncccc1C(=O)Nc1cccc(Cn2ccccc2=O)c1 is ____.
[A] -7.74

[Q] Fill blank: measured cytotoxicity at 70.5 h of the molecule COCCNC(=O)[C@H]1CN(Cc2sccc2C)C[C@H]2OCC[C@@H]12 is ____.
[A] 7.63

[Q] Fill blank: measured cytotoxicity at 70.5 h of the molecule CC(C)(C)SCC(=O)NCCc1csc(N2CCCC2)n1 is ____.
[A] -6.06

[Q] Fill blank: measured cytotoxicity at 70.5 h of the molecule NCc1n[nH]c(=O)n1-c1ccccc1Oc1ccccc1 is ____.
[A] 9.56

[Q] Fill blank: measured cytotoxicity at 70.5 h of the molecule COc1cccc2ccn(CCC(=O)N3CCCC(C(=O)O)C3)c12 (stereo not drawn) is ____.
[A] -22.2

[Q] Fill blank: measured cytotoxicity at 70.5 h of the molecule CCn1cc(NC(=O)C2CCN(Cc3nc(C)c(C)s3)CC2)cn1 is ____.
[A] -5.47

[Q] Fill blank: measured cytotoxicity at 70.5 h of the molecule CC(C)CNc1nccc(-c2cnc3sc(Cl)cn3c2=O)n1 is ____.
[A] -6.64

[Q] Fill blank: measured cytotoxicity at 70.5 h of the molecule Cc1nc(CN2CCC3(CCN(c4ncc(F)cn4)C3)C2=O)cs1 (stereo not drawn) is ____.
[A] 4.85

[Q] Fill blank: measured cytotoxicity at 70.5 h of the molecule O=C(NCCCO)Nc1cccc(C[S+]([O-])Cc2ccccc2)c1 (stereo not drawn) is ____.
[A] -4.46

[Q] Fill blank: measured cytotoxicity at 70.5 h of the molecule CC(Cn1ccnc1)NS(=O)(=O)Cc1ccc(F)cc1 (stereo not drawn) is ____.
[A] -2.62

[Q] Fill blank: measured cytotoxicity at 70.5 h of the molecule CCc1ncc(C(=O)N(CC)CCOC)cn1 is ____.
[A] -1.19

[Q] Fill blank: measured cytotoxicity at 70.5 h of the molecule CCC(CO)N(Cc1ccsc1)Cc1ccc(-c2ccn[nH]2)s1 (stereo not drawn) is ____.
[A] -5.61

[Q] Fill blank: measured cytotoxicity at 70.5 h of the molecule CCS(=O)(=O)N1C[C@@H]2COC[C@@H](Cc3nc(C)no3)[C@@H]2C1 is ____.
[A] -2.03

[Q] Fill blank: measured cytotoxicity at 70.5 h of the molecule CC(C)S(=O)(=O)N1CCC(c2cc3n(n2)[C@@H](C(F)(F)F)C[C@@H](C)N3)CC1 is ____.
[A] -7.62

[Q] Fill blank: measured cytotoxicity at 70.5 h of the molecule CCN(CCCNC(=O)Nc1ccccc1C(C)C)S(C)(=O)=O is ____.
[A] -4.67

[Q] Fill blank: measured cytotoxicity at 70.5 h of the molecule Oc1ccc(C2Nc3ccccc3C3=NCCCN32)cc1 (stereo not drawn) is ____.
[A] -2.33

[Q] Fill blank: measured cytotoxicity at 70.5 h of the molecule Cn1ccc(NC(=O)Cc2cccc(F)c2)n1 is ____.
[A] 14.1

[Q] Fill blank: measured cytotoxicity at 70.5 h of the molecule CN1CCCC(c2cccc(Cc3ccccc3Cl)n2)C1 (stereo not drawn) is ____.
[A] -3.75

[Q] Fill blank: measured cytotoxicity at 70.5 h of the molecule c1cnn(C2CN(Cc3nc(-c4ccsc4)no3)C2)c1 is ____.
[A] -11.9

[Q] Fill blank: measured cytotoxicity at 70.5 h of the molecule CCc1cc(N2C[C@H](C3CC3)[C@@H](N)C2)nc(N2CCCC2)n1 is ____.
[A] 18.8

[Q] Fill blank: measured cytotoxicity at 70.5 h of the molecule CC(C)c1nc(C2CCCN(C(=O)CCCn3cncn3)C2)no1 (stereo not drawn) is ____.
[A] -16

[Q] Fill blank: measured cytotoxicity at 70.5 h of the molecule CCN(CCO)C[C@@H]1CN(c2nc(C)cc(C)n2)C[C@@H]1CO is ____.
[A] -2.32

[Q] Fill blank: measured cytotoxicity at 70.5 h of the molecule COC(=O)N1CC2(CCNCC2)c2cc(Cl)ccc21 is ____.
[A] -7.27

[Q] Fill blank: measured cytotoxicity at 70.5 h of the molecule CC(C)NC(=O)COc1ccc(-c2nc(C(C)C)no2)cc1 is ____.
[A] -19.4

[Q] Fill blank: measured cytotoxicity at 70.5 h of the molecule CCc1nc(C2CCCN2C(=O)c2cc(Cl)c[nH]2)no1 (stereo not drawn) is ____.
[A] -2.89

[Q] Fill blank: measured cytotoxicity at 70.5 h of the molecule CCn1ccnc1CN1CCN(CC(O)c2ccc(OC)cc2)CC1 (stereo not drawn) is ____.
[A] 12.3

[Q] Fill blank: measured cytotoxicity at 70.5 h of the molecule CN(CCNC(=O)c1cnc(-c2ccccc2)nc1)S(C)(=O)=O is ____.
[A] 5.47

[Q] Fill blank: measured cytotoxicity at 70.5 h of the molecule CC(=O)N1CCC(C(=O)NCCN2CCC(C)CC2)CC1 is ____.
[A] -2.37

[Q] Fill blank: measured cytotoxicity at 70.5 h of the molecule CCNC(=O)N1C[C@@H]2OCC(=O)N(C)[C@@H]2C1 is ____.
[A] 7.93

[Q] Fill blank: measured cytotoxicity at 70.5 h of the molecule Cc1cc(C(C)NC(=O)CCn2nnc3ccccc3c2=O)c(C)o1 (stereo not drawn) is ____.
[A] -5.41

[Q] Fill blank: measured cytotoxicity at 70.5 h of the molecule COC(=O)c1ccc(OC)c(Cn2cc(N)cn2)c1 is ____.
[A] -19.2

[Q] Fill blank: measured cytotoxicity at 70.5 h of the molecule O=C(CCc1nc(C2CC2)no1)c1ccc2c(c1)OCCO2 is ____.
[A] -16.9

[Q] Fill blank: measured cytotoxicity at 70.5 h of the molecule CC1(C)CNC(=O)c2nc(-c3nnn[nH]3)[nH]c2C1 is ____.
[A] -3.01

[Q] Fill blank: measured cytotoxicity at 70.5 h of the molecule CN(C)S(=O)(=O)NCc1cccnc1Oc1ccccc1F is ____.
[A] 1.78

[Q] Fill blank: measured cytotoxicity at 70.5 h of the molecule Cc1cc(C)n(CCCNC(=O)C2CCCO2)n1 (stereo not drawn) is ____.
[A] 2.61

[Q] Fill blank: measured cytotoxicity at 70.5 h of the molecule COc1ccc(C2(NC(=O)c3ccc(=O)n(C)n3)CCCC2)cc1 is ____.
[A] -12.4
